target: the molecule itself; test: sedimentation assay with HPLC of the supernatant
Parameter Measured: n* (critical nucleus size of aggregation)
In your answer, state the number alone without any accompanying words.

q: Which n* (critical nucleus size of aggregation) value is on record for KKQQQQQQQQQQQQQQQQQQQQQQQQKK [K2Q24K2] ?
a: 3.3

q: Which n* (critical nucleus size of aggregation) value is on record for KKQQQQQQQQQQQQQQQQQQQQQQQQQKK [K2Q25K2] ?
a: 2

q: Which n* (critical nucleus size of aggregation) value is on record for KKQQQQQQQQQQQQQQQQQQQQQQQQQQQQQQQQQQQQQKK [K2Q37K2] ?
a: 0.7

q: Which n* (critical nucleus size of aggregation) value is on record for SFQ37P10K2 (peptide) peptide: SFQQQQQQQQQQQQQQQQQQQQQQQQQQQQQQQQQQQQQPPPPPPPPPPKK ?
a: 1
